Hey, just so you know, these numbers are from PubChem BioAssay (NCATS).

test system: CRL-7250; assay: Cytotoxic Profiling of Annotated Libraries Using Quantitative High-Throughput Screening (AID 1296008); conditions: Five cell lines viability, CellTiter-Glo ATP luminescence, 48-72 h; hits give low values; note: % is set by controls: 0 for no effect and ±100 for the full control effect; nearly all actives have a fitted effect of over 60% in size
Results filed as inconclusive are left out.
// values below are reported max response
MEASURE_NAME: max response (%)

- c1ccc2c(Nc3nnc(-c4ccncc4)s3)cccc2c1: 3.08
- CC(=O)OC1C(CO)OC(O[C@H]2[C@H](OC(=O)[C@]34CCC(C)(C)C[C@H]3C3=CCC5[C@@]6(C)CC[C@H](O[C@@H]7O[C@H](C(=O)O)[C@@H](O)[C@H](O[C@@H]8OC[C@@H](O)[C@H](O)[C@H]8O)[C@H]7O[C@@H]7O[C@H](CO)[C@H](O)[C@H](O)[C@H]7O)[C@@](C)(C=O)C6CC[C@@]5(C)[C@]3(C)C[C@H]4O)O[C@H](C)[C@H](OC3OC(C)C(OC4OCC(O)C(O)C4O)C(O)C3O)[C@@H]2O)C(O)C1O (stereo not given in full): -0.582
- C=CC1(C)CC=C2C(CCC3C(C)(C(=O)O)CCCC23C)C1 (stereo not given): 4.68
- COc1cc(/C=C/C(=O)OC[C@H]2O[C@@H](OC3OC=C(C(=O)O)C4C(O)CC(C)(O)C34)[C@H](O)[C@@H](O)[C@@H]2O)cc(OC)c1O (stereo not given in full): -14.2
- CC1(C)CC[C@]2(C(=O)O[C@@H]3O[C@H](CO)[C@@H](O)[C@H](O)[C@H]3O)CC[C@]3(C)C(=CCC4[C@@]5(C)CC[C@H](O[C@@H]6O[C@H](C(=O)O)[C@@H](O)[C@H](O)[C@H]6OC6OC(CO)C(O)C(O)C6O)C(C)(C)C5CC[C@]43C)[C@@H]2C1 (stereo not given in full): 3.56
- C[C@]12CC[C@@H]3c4ccc(O)cc4CC[C@H]3[C@@H]1C[C@@H](O[C@@H]1O[C@H](C(=O)O)[C@@H](O)[C@H](O)[C@H]1O)[C@@H]2O: 2.29
- COc1cc2nc(=NC(=O)c3cccnc3)n3c(c2cc1OC)NCC3: 4.99
- CC(=O)OC1CC2(C)C(CCC(C)C23Cc2c(O)cc4c(c2O3)CNC4=O)C(C)(C)C1O (stereo not given): -8.86
- O=C(/C=C/c1ccc(O)c(O)c1)O[C@@H]1[C@@H](O)[C@H](OC2CCCCC2O)O[C@H](CO)[C@H]1O (stereo not given in full): 4.08
- COc1cc(C(CO)CO[C@@H]2O[C@H](CO)[C@@H](O)[C@H](O)[C@H]2O)ccc1O (stereo not given in full): -15.6
- COc1ccc(NC(=O)c2ccc(-c3ccc(C(N)=O)cc3C)cc2)cc1N1CCN(C)CC1: -5.67
- C[C@@H]1[C@H]2[C@H](O[C@@H]3O[C@H](CO)[C@@H](O)[C@H](O)[C@H]3O)OC=C(C(=O)O)[C@H]2C[C@@H]1OC(=O)/C=C/c1ccc(O)cc1: -1.73
- COC(=O)C1=CO[C@@H](O[C@@H]2O[C@H](CO)[C@@H](O)[C@H](O)[C@H]2O)C2C1CC(O)C2C (stereo not given in full): -13.7
- C[C@@H]1[C@H](O)[C@@H]2OC(=O)C3=C2[C@H](CCC3)[C@@]12C[C@@H](c1ccoc1)OC2=O: 4.91
- CC1CCC2C(C)(C)[C@H](O)CC[C@]2(C)C12Cc1c(O)cc3c(c1O2)CN(C(CCC(=O)O)C(=O)O)C3=O (stereo not given in full): -1.74

###

system: KB-3-1; test: Cytotoxic Profiling of Annotated Libraries Using Quantitative High-Throughput Screening (AID 1296008); conditions: Five cell lines viability, CellTiter-Glo ATP luminescence, 48-72 h; hits give low values; note: % is set by controls: 0 for no effect and ±100 for the full control effect; nearly all actives have a fitted effect of over 60% in size
Inconclusive results are not listed.
MEASURE_NAME: max response (%)

* CCC(C)C(=O)OC[C@H]1O[C@H](O[C@H]2O[C@H](CO)[C@@H](O)[C@H](O)[C@H]2O)[C@H](O)[C@@H](O)[C@@H]1O (stereo partly drawn) | 6.74
* O=C(OC[C@H]1O[C@H](O[C@H]2CO[C@H](CO)[C@@H](O)[C@@H]2O)[C@H](O)[C@@H](O)[C@H]1O)c1ccccc1 | -0.911
* C=C1CC[C@@]2(OC1)O[C@H]1CC3C4CC=C5C[C@@H](O[C@@H]6O[C@@H](C)[C@H](O)[C@@H](O)[C@H]6O)C[C@@H](O[C@@H]6O[C@H](C)[C@H](O)[C@H](O)[C@H]6O[C@@H]6O[C@@H](C)[C@H](O)[C@@H](O)[C@H]6O)[C@]5(C)C4CC[C@]3(C)[C@H]1[C@@H]2C (stereo partly drawn) | 5.01
* C=C1C(=O)O[C@@H]2/C=C(\C)CC/C=C(\C(=O)O[C@@H]3O[C@H](CO)[C@@H](O)[C@H](O)[C@H]3O)CC[C@@H]12 | -8.71
* C=C1C2CCC3CC2(CC(O)C2(O)C1CC(OC1OC(CO)C(O)C(O)C1O)C2(C)C)CC3(C)O (stereo not drawn) | -0.357
* CC1=C2CC(O)(C(C)(C)O)C(O[C@@H]3O[C@H](CO)[C@@H](O)[C@H](O)[C@H]3O)CC(C)C2CC1=O (stereo partly drawn) | 7.73
* CC(/C=C/C=C(\C)C(=O)O[C@@H]1O[C@H](CO[C@@H]2O[C@H](CO)[C@@H](O)[C@H](O)[C@H]2O)[C@@H](O)[C@H](O)[C@H]1O)=C\C=C\C=C(C)\C=C\C=C(/C)C(=O)O[C@@H]1C[C@](O)(C(=O)O)C[C@@H](O)[C@H]1OC(=O)/C=C/c1ccc(O)c(O)c1 | 5.86
* CC1=CC2=C(C)C(=O)C(C)(O)C(O)C2CO1 (stereo not drawn) | 5.71
* C=C[C@H]1[C@H](O[C@@H]2O[C@H](CO)[C@@H](O)[C@H](OC(=O)/C=C/c3ccc(O)c(OC)c3)[C@H]2O)OC=C2C(=O)OCC[C@]21O | 6.87
* CC1=CC23[C@H](C=C(C(=O)O)[C@@H]2COC(=O)[C@]3(O)CO)[C@@H]1C (stereo partly drawn) | 5.88
* CNc1nc(C)nc(N[C@H]2CCC[C@@H](C(=O)NCc3ccc(C#N)cc3C(F)(F)F)C2)n1 | -5.41
* CC1(C)CC[C@]2(C(=O)O)CC[C@]3(C)C(=CCC4[C@@]5(C)CC[C@H](O)C(C)(C)C5CC[C@]43C)C2C1 (stereo partly drawn) | 2.08
* CN1CCc2cc(Cl)c(O)cc2[C@@H](c2cccc3c2OCC3)C1 | -4.72

###

target: Calcium and integrin-binding protein 1 (Homo sapiens) (UniProt Q99828); assay: Primary qHTS for Identification of Calcium Integrin Binding Protein 1 (CIB1) Competitor (AID 1508620); details: CIB1-GST / FITC-alphaIIb peptide fluorescence polarization; series mostly up to 57.7 µM;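 note: GST tagged CIB1 binding a fluorescein labelled alphaIIb integrin peptide tracer; top concentration of the series differs between compounds; % is set by controls: 0 for no effect and ±100 for the full control effect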
Sequence (Q99828 whole entry, looked up): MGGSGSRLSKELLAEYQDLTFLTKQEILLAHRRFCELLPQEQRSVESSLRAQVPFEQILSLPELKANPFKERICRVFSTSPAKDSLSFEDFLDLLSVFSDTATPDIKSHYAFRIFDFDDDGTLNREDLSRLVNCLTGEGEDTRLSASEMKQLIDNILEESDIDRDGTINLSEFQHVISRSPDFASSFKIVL
Records with an inconclusive call do not appear. The source made the active and inactive calls. The call rests on the fitted dose curve; in most records, active means well fitted inhibition curve with a large enough effect; inconclusive means small, poorly fitted or top-dose-only effect; inactive means flat fitted curve, though single readings scatter.
MEASURE_NAME: activity change, negative = inhibition

• C=CC(C)(CC/C=C(\C)C(=O)OC[C@H]1O[C@@H](OC(C)(C=C)CC/C=C(\C)C(=O)O[C@H]2[C@H](O)[C@@H](O)[C@H](OC(C)(C=C)CC/C=C(\C)C(=O)O)O[C@@H]2CO)[C@H](O)[C@@H](O)[C@@H]1O)O[C@@H]1O[C@H](CO)[C@@H](O)[C@H](O)[C@H]1O (some centres not stated) = inactive
• CC(=O)O[C@H]1C[C@@]2(C)[C@@H](CC[C@H]3[C@@]4(C)C=CC(=O)[C@@H](C)[C@@H]4[C@H](OC(C)=O)C(=O)[C@@]32C)/C1=C(\CCC=C(C)C)C(=O)O = inactive

###

assay: Primary fluorescence-based thiol-reactive (MSTI) qHTS assay for identification of artifact compounds. (AID 1845221); conditions: MSTI thiol-reactivity probe, 1 h; series mostly up to 53.8 µM; note: nearly all actives have a fitted effect of over 65% in size
Records with an inconclusive call do not appear. Active and inactive are the calls of the source. Calls come from the whole dose curve; as a rule, active = well fitted inhibition curve with a large enough effect; inconclusive = small, poorly fitted or top-dose-only effect; inactive = no such curve, though single readings can be large or run the other way.
Possible outcomes: active, inactive

- CC1(C)CC=C(c2cnc3ccccc3c2)c2cc(C(=O)Nc3ccc(C(=O)O)cc3)ccc21: inactive
- COc1cc([C@H]2OC[C@](O)(Cc3ccc(O[C@@H]4O[C@H](CO)[C@@H](O)[C@H](O)[C@H]4O)c(OC)c3)[C@@H]2CO)ccc1O: inactive
- COC(=O)C1=COC(OC2OC(CO)C(O)C(O)C2O)C2C(COC(=O)/C=C/c3ccc(O)cc3)C(O)C(O)C12 (stereo not given): active
- CCCCC(=O)N1c2ccccc2NC2=C(C(=O)CCC2)C1c1ccccc1Cl (stereo not given): inactive
- CCCc1[nH]nc2c1C(c1cc(Cl)cc(Cl)c1O)C(C#N)=C(N)O2 (stereo not given): inactive
